Recorded viability, T/C by entry
system: OVCAR-5 complex spheroid (HUVEC/MSC), viability % T/C; assay: Anticancer human tumor OVCAR-5 cell line growth inhibition [Asc]; details: second compound 0.316 µM; first compound 0.0949 µM; active compounds read low;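 further: spheroids exposed to agents for 7 days before readout; 100% = DMSO vehicle-treated wells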

molecule	measured-property	readout-value
NC(=O)C(=Cn1cnc(-c2cc(C(F)(F)F)cc(C(F)(F)F)c2)n1)c1cncnc1 + Cc1c(S(C)(=O)=O)c(-c2cc(F)cc(N3CCN(c4ccc(NS(=O)(=O)c5ccc(NC(CCN6CCC(C(=O)OCCCP(=O)(O)O)CC6)CSc6ccccc6)c(S(=O)(=O)C(F)(F)F)c5)cc4)CC3)c2)c(-c2ccc(Cl)cc2)n1C(C)C	viability, T/C	60.3%
NC(=O)C(=Cn1cnc(-c2cc(C(F)(F)F)cc(C(F)(F)F)c2)n1)c1cncnc1 + CNC(C)C(=O)NC1CN(S(=O)(=O)c2cccc(S(=O)(=O)N3CCC4CCC(C(=O)NC(c5ccccc5)c5ccccc5)N4C(=O)C(NC(=O)C(C)NC)C3)c2)CCC2CCC(C(=O)NC(c3ccccc3)c3ccccc3)N2C1=O	viability, T/C	60%

In the following, a different molecule is considered.
viability, T/C on OVCAR-5 complex spheroid (HUVEC/MSC), viability % T/C for Cc1nc(N2CCC3(CC2)COC(C)C3N)c(CO)nc1Sc1ccnc(N)c1Cl (stereo not drawn) + Cc1c(S(C)(=O)=O)c(-c2cc(F)cc(N3CCN(c4ccc(NS(=O)(=O)c5ccc(NC(CCN6CCC(C(=O)OCCCP(=O)(O)O)CC6)CSc6ccccc6)c(S(=O)(=O)C(F)(F)F)c5)cc4)CC3)c2)c(-c2ccc(Cl)cc2)n1C(C)C is 73.9%

---

Recorded viability, T/C by entry
tested on: OVCAR-5 complex spheroid (HUVEC/MSC), viability % T/C; assay: Anticancer human tumor OVCAR-5 cell line growth inhibition [Asc]; conditions: second compound 3.16 µM; first compound 3.16 µM; active compounds read low;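 further: spheroids exposed to agents for 7 days before readout; 100% = DMSO vehicle-treated wells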
Express the result in % but write the number alone.

# annotated cases, reported viability, T/C shown
compound	unit-info	viability, T/C
O=C(c1cc(Cc2n[nH]c(=O)c3ccccc23)ccc1F)N1CCN(C(=O)C2CC2)CC1 + Cc1c(S(C)(=O)=O)c(-c2cc(F)cc(N3CCN(c4ccc(NS(=O)(=O)c5ccc(NC(CCN6CCC(C(=O)OCCCP(=O)(O)O)CC6)CSc6ccccc6)c(S(=O)(=O)C(F)(F)F)c5)cc4)CC3)c2)c(-c2ccc(Cl)cc2)n1C(C)C	%	73.4
C=CC(=O)N1CCN(c2nc(=O)n(-c3c(C)ccnc3C(C)C)c3nc(-c4c(O)cccc4F)c(F)cc23)C(C)C1 (centres undefined) + Cc1c(S(C)(=O)=O)c(-c2cc(F)cc(N3CCN(c4ccc(NS(=O)(=O)c5ccc(NC(CCN6CCC(C(=O)OCCCP(=O)(O)O)CC6)CSc6ccccc6)c(S(=O)(=O)C(F)(F)F)c5)cc4)CC3)c2)c(-c2ccc(Cl)cc2)n1C(C)C	%	108
C#Cc1c(F)ccc2cc(O)cc(-c3ncc4c(N5CC6CCC(C5)N6)nc(OCC56CCCN5CC(F)C6)nc4c3F)c12 (centres undefined) + Cc1c(S(C)(=O)=O)c(-c2cc(F)cc(N3CCN(c4ccc(NS(=O)(=O)c5ccc(NC(CCN6CCC(C(=O)OCCCP(=O)(O)O)CC6)CSc6ccccc6)c(S(=O)(=O)C(F)(F)F)c5)cc4)CC3)c2)c(-c2ccc(Cl)cc2)n1C(C)C	%	49.8

In the following, a different compound is considered.
The recorded viability, T/C for C=C(F)C(=O)N1CCN(c2nc(OCC3CCCN3C)nc3c2CCN(c2cccc4cccc(Cl)c24)C3)CC1CC#N (centres undefined) + Cc1c(S(C)(=O)=O)c(-c2cc(F)cc(N3CCN(c4ccc(NS(=O)(=O)c5ccc(NC(CCN6CCC(C(=O)OCCCP(=O)(O)O)CC6)CSc6ccccc6)c(S(=O)(=O)C(F)(F)F)c5)cc4)CC3)c2)c(-c2ccc(Cl)cc2)n1C(C)C is 0.82
